System: Rattus norvegicus
assay_info: AUC (0 to 6 hrs) in po dosed rat
Assay type: ADME, organism-based, Plasma
Design: time < 6 hr, route oral
measurement_context: in vivo
measurement_name: AUC (µM·h)

(1) CN(C[C@@H](NC(=O)N[C@H](C(=O)N1C[C@H]2[C@@H]([C@H]1C(=O)NC(CC1CCC1)C(=O)C(N)=O)C2(C)C)C(C)(C)C)C(C)(C)C)S(=O)(=O)C1CC1 (stereo partly specified)
(2) C=CCNC(=O)C(=O)C(CCC)NC(=O)[C@@H]1[C@@H]2[C@H](CN1C(=O)[C@@H](NC(=O)N[C@H](CN(C)S(=O)(=O)CC)C(C)(C)C)C(C)(C)C)C2(C)C (stereo partly specified)
Exercise: Hi, I'm comparing 1 with 2 and wondering which one has the bigger number for AUC. Any idea? Label of pick, please.
Solution: 2

(a) C=CCNC(=O)C(=O)C(CCC)NC(=O)[C@@H]1[C@@H]2[C@H](CN1C(=O)[C@@H](NC(=O)N[C@H](CN(C)S(=O)(=O)c1ccccn1)C(C)(C)C)C(C)(C)C)C2(C)C (stereo partly specified)
(b) CN(C[C@@H](NC(=O)N[C@H](C(=O)N1C[C@H]2[C@@H]([C@H]1C(=O)NC(CC1CCC1)C(=O)C(N)=O)C2(C)C)C(C)(C)C)C(C)(C)C)S(=O)(=O)c1cccs1 (stereo partly specified)
(c) CN(C[C@@H](NC(=O)N[C@H](C(=O)N1C[C@H]2[C@@H]([C@H]1C(=O)NC(CC1CCC1)C(=O)C(N)=O)C2(C)C)C(C)(C)C)C(C)(C)C)S(C)(=O)=O (stereo partly specified)
Exercise: Exam item: list the entries in increasing order of AUC. Answer by naming the labels in the order asked.
Solution: c, b, a

Provenance of the data: ChEMBL document CHEMBL1154065
